Experiment: Rat PK: plasma clearance after PO and IV dosing
Type: in vivo
Conditions: rat, plasma; fasted male Wistar Han rats; IV 0.5 mg/kg or 0.05 mg/kg; 20/60/20 DMSO/PEG400/H2O; read-out: Rat plasma clearance (Clp)
Result type: clearance (mL/min/kg)
// return numeric value only (unit: mL/min/kg, not printed)

Known results for molecules:
O=C(O)c1ccc(-c2nn(C(=O)c3c(C(F)F)cccc3C3(C(F)(F)F)CC3)c3cccnc23)c(F)c1    5
Cc1c(F)ccc(C2(C(F)(F)F)CC2)c1C(=O)n1nc(-c2ccc(C(=O)O)cc2F)c2ncccc21    18
O=C(O)c1ccc(-c2cn(C(=O)c3c(Cl)cccc3C3(C(F)F)CC3)c3cccnc23)c(F)c1    5

Kindly consider the entry below.
Q: So what does the record say about clearance for O=C(O)c1ccc(-c2nn(C(=O)c3c(C4(C(F)F)CC4)ccc(F)c3Cl)c3cccnc23)c(F)c1 ?
Ans: 16

Origin of the recorded values: patent US10584121B2
